experiment: amyloid nucleation score (Sup35N fusion, yeast selection) (log enrichment); library NNK1; higher = more nucleation; inactive = no reads after selection;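 also: zero at mode of non-aggregating sequences after 7 days selection at 30°C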
Each entry below lists one item and its recorded amyloid nucleation score value.
quantity kind: amyloid nucleation score

- substance: "TPGNVG"
  test result: 0.514
- substance: "FWSLYD"
  test result: 0.003
- substance: "VVSSRSIMGTVRMNEKVVAT"
  test result: -0.563
- substance: "YYNRFILRSWEGSSMGLWSC"
  test result: -0.582
- substance: "SHCYSLGMLKVWLGQIKTFG"
  test result: 1.8
- substance: "RNLVWDMNAFKHVFCEDIHY"
  test result: 0.396
- substance: "TTTNCRI"
  test result: 0.057
- substance: "FYVLATFSNC"
  test result: 0.618
- substance: "CAAGARSSGEMAYIARMKAG"
  test result: 0.482
- substance: "NSRGVSSKYCFGKRIPDGGL"
  test result: 0.117
- substance: "SMVLKTTDAGDNLHSKCNML"
  test result: -1.09
- substance: "SLSWEAYRSLLS"
  test result: 1.1
- substance: "VDPYQVNYLNKLVTENYRVS"
  test result: 0.097
- substance: "ECCYWPREK"
  test result: 0.422
- substance: "FDNAPMSDLG"
  test result: 0.405
- substance: "NDACYWEFCYADKLYFEWWF"
  test result: 1.04
- substance: "SLDYLIFPVLDDGKKYMFVM"
  test result: 1.33
- substance: "PIWLTDKFGG"
  test result: -0.24
- substance: "WHELRMCIVMDFLLMLQKMI"
  test result: 1.79
- substance: "GQKVMIAHGTQETIHGGCCG"
  test result: -0.275
- substance: "TWIKILSGPLYKFCI"
  test result: -0.2
- substance: "FHLWHLIVYILALY"
  test result: -0.955
- substance: "NADDISVRTGNTQESLSW"
  test result: 0.275
- substance: "CNLYFSYNCVFT"
  test result: -0.592
- substance: "SFAVCGKLDHWCPCSAITLV"
  test result: 1.08
- substance: "TRLLSYFDTRRELNCKVYYN"
  test result: -0.053
- substance: "TVIYSNYAVICMGSMSQVDT"
  test result: 7.76
- substance: "SEHVIIGRRDFV"
  test result: -0.018
- substance: "WIVHCVEFALYGLGF"
  test result: 1.33
- substance: "FSDTRTGGDSTPKN"
  test result: 0.108
- substance: "SICFYSLNSTPSLVGSWWGG"
  test result: 1.3
- substance: "VWSKVLGSGRWSVVRGRAWR"
  test result: 1.63
- substance: "FRFSGHWGETIASRTG"
  test result: 0.376
- substance: "IVVSVVTASI"
  test result: -0.018
- substance: "FDADGHPLKTPLCMGLSCGG"
  test result: -0.129
- substance: "CNSLTLFRWYFNMVGNIQAN"
  test result: -0.143
- substance: "ASLAMISRMYSSYLDGMVFS"
  test result: -0.412
- substance: "SNMSHLNRG"
  test result: 0.649
- substance: "LRSVPRSRSF"
  test result: 0.783
- substance: "SSSGFNIFRLLV"
  test result: -0.325
- substance: "VMESTRNFSKVMSCSLFRFR"
  test result: -0.684
- substance: "ILGKFFIDLSDI"
  test result: -1.16
- substance: "QVTRDGSYVGCGGGRRREMC"
  test result: -0.359
- substance: "GNLVCGCVVLQIMHIERGMA"
  test result: 7.48
- substance: "LNHRGGLVDGFMAAGPRKFR"
  test result: -0.793
- substance: "LVMGMHYSLVV"
  test result: 0.125
- substance: "YDRAWMLRPTLLWLTQTVVR"
  test result: 2.21
- substance: "SHQSDGNWQMVYWCLLVRFT"
  test result: -0.709
- substance: "RMLIDGLSLVVDWRYVVEGG"
  test result: -0.192
- substance: "SNALVFNFSRHAFVNIVFVY"
  test result: 4.04
- substance: "NRPHTTYFFSFKSQF"
  test result: 5.61
- substance: "ETARLCRWSYK"
  test result: 2.22
- substance: "QLRNLFHFYTGITDSRFLLH"
  test result: 1.93
- substance: "LSTDQLVSSLKCR"
  test result: 0.404
- substance: "SVKYMVIDFQLKRMEVVINK"
  test result: 0.354
- substance: "CHYMSHSSWHSWTNRVMRDM"
  test result: 0.531
- substance: "PTSSMI"
  test result: 0.488
- substance: "MIRPVFLVFVYMLFCLGNCT"
  test result: 0.383
- substance: "LVILRGLGPDSCYYC"
  test result: -0.248
- substance: "SNFGCFYCLLIPRNKKLGLG"
  test result: 1.67
- substance: "TGSLVFLTLTLLLVCYLPIT"
  test result: 0.302
- substance: "KLNLKFYAFYNM"
  test result: 5.49
- substance: "CDINLRKDTGISHLNGLFNA"
  test result: 0.755
- substance: "GFGSMLVEVTLYSAVAVAAR"
  test result: 0.852
- substance: "WRGLPSNG"
  test result: 0.024
- substance: "VRMVQEMFRRRTLEELAMGA"
  test result: 0.447
- substance: "MTMAFRKLFSVVRILMNMRL"
  test result: 0.059
- substance: "SACGVIRRLSAGYNCFYVK"
  test result: 0.229
